biological target: BRD4 BD1 (Homo sapiens, UniProt O60885); assay: AlphaScreen binding assay, BRD4 Bromodomain 1
MEASUREMENT TYPE: IC50

Use the examples below as a reference point.
> print(dat)
                                   compound          measured
1  CC(=O)N1c2ccc(-c3cnn(CCO)c3)cc2N(C(=O)N(C)c2ccccc2)C[C@@H]1C [Example I-1212]        > 10000 nM
2  CC(=O)N1c2ccc(-c3ccc(N4CCCS4(=O)=O)cc3)cc2N(C(=O)Oc2cccnc2)C[C@@H]1C [Example I-1286]    100 to 1000 nM
3  CC(=O)N1c2ccc(-c3ccc4nncn4n3)cc2N(C(=O)c2ccco2)C[C@@H]1C [Example I-396]  1000 to 10000 nM
4  COc1ccc(OC(=O)N2C[C@H](C)N(C(C)=O)c3ccc(-c4cnn(C5COC5)c4)cc32)cc1 [Example I-87]          < 100 nM
5  CCCS(=O)(=O)c1ccc(-c2ccc3c(c2)N(C(=O)OCC)C[C@H](C)N3C(C)=O)cc1 [Example I-1072]    100 to 1000 nM
6  CC(=O)N1c2ccccc2N(Cc2ccc(Oc3ccccc3)cc2)C[C@@H]1C [Example I-919]        > 10000 nM

## Task # input compound: CC(=O)N1c2ccccc2N(C(=O)c2cnc3ccccc3c2)C[C@@H]1C [Example I-752] ; wanted: its IC50
## Result > 10000 nM

## Task What measured IC50 goes with CC(=O)N1c2ccc(-c3ccc4nccn4c3)cc2N(C(=O)c2ccco2)C[C@@H]1C [Example I-382] ?
## Result 1000 to 10000 nM

## Task What does the data say about its IC50? Entry: CC(=O)N1c2ccc(-c3cnn(C4CS(=O)(=O)C4)c3)cc2N(C(=O)OC(C)C)C[C@@H]1C [Example I-1306]
## Result 100 to 1000 nM

## Task So what does the record say about IC50 for CC(=O)N1c2ccc(-c3ccc(NS(C)(=O)=O)cc3)cc2N(C(=O)c2ccco2)C[C@@H]1C [Example I-279] ?
## Result 100 to 1000 nM

## Task Request the reported IC50 associated with CC(=O)N1c2ccc(-c3c(C)n[nH]c3C)cc2N(C(=O)OC(C)C)CC1C (stereo not drawn) [Example I-333]
## Result 1000 to 10000 nM

## Task Looking for the measured IC50 of CC(=O)N1c2ccc(-c3cnn(C4COC4)c3)cc2N(C(=O)OCC2CC2(F)F)C[C@@H]1C (stereo partly drawn) [Example I-75] , can you help?
## Result 1000 to 10000 nM

## Task So what's the measured IC50 for this one? CC(=O)N1c2ccc(-c3cccc(NS(C)(=O)=O)c3)cc2N(C(=O)OC2CCOCC2)C[C@@H]1C [Example I-1222]
## Result 100 to 1000 nM

## Task Requested read-out: IC50. Entry: CC(=O)N1c2ccc(-c3cnn(C4CC4)c3)cc2N(C(=O)Oc2cccnc2)C[C@@H]1C [Example I-510]
## Result < 100 nM

## Task I am curious: what IC50 value has been reported for CC(=O)N1c2ccc(-c3cnn(C(C)(C)C)c3)cc2N(C(=O)OC(C)C)C[C@@H]1C [Example I-330] ?
## Result 100 to 1000 nM

## Task Which IC50 reading was recorded for the compound CC(=O)N1c2ccc(-c3cnn(C4CC4)c3)cc2N(C(=O)Oc2cc(C)ccc2F)C[C@@H]1C [Example I-1198] ?
## Result 100 to 1000 nM

## Task Any idea what its IC50 is? The compound is CC(=O)N1c2ccc(-c3ccc(C(=O)N4CCOCC4)cc3)cc2N(C(=O)c2ccco2)C[C@@H]1C [Example I-283]
## Result 1000 to 10000 nM

## Task # query: IC50 of entry CC(=O)N1c2ccc(-c3cnn(CCN4CCCS4(=O)=O)c3)cc2N(C(=O)C2CC2)C[C@@H]1C [Example I-659]
## Result 100 to 1000 nM

## Task Entry under review: C[C@H]1CN(C(=O)c2ccco2)c2cc(-c3ccc(S(C)(=O)=O)cc3)ccc2N1C(=O)N(C)C [Example I-369] . Reported IC50?
## Result > 10000 nM

## Task What value of measured IC50 is listed for COc1cc(C(=O)N2C[C@H](C)N(C(C)=O)c3ccccc32)nc2ccccc12 [Example I-753] ?
## Result > 10000 nM

## Task Could you share which IC50 value was measured for CCS(=O)(=O)Nc1ccc(-c2ccc3c(c2)N(C(=O)OC2CCCCC2)C[C@H](C)N3C(C)=O)cc1 [Example I-1269] ?
## Result 100 to 1000 nM

## Task GET /values?readout=IC50&item= CC(=O)N1c2ccc(-c3cnn(C4CC4)c3)nc2N(C(=O)NC(C)C)C[C@@H]1C [Example I-193]
## Result > 10000 nM

## Task Returns the measured IC50 for the input compound. Input: COC(=O)Nc1ccc(-c2ccc3c(c2)N(C(=O)c2ccco2)C[C@H](C)N3C(C)=O)cc1 [Example I-414]
## Result 1000 to 10000 nM

## Task Can you share its IC50? I mean this compound: CC(=O)N1c2ccccc2N(C(=O)c2csc(C(F)(F)F)n2)C[C@@H]1C [Example I-761]
## Result > 10000 nM

## Task Which measured IC50 value corresponds to CC(=O)N1c2ccc(-c3ccc(NS(C)(=O)=O)c(F)c3)cc2N(C(=O)OC(C)C)C[C@@H]1C [Example I-1183] ?
## Result 100 to 1000 nM

## Task Which measured IC50 value corresponds to CC(=O)N1c2ccc(-c3ccc(C(=O)N4CC[C@H](N)C4)cc3)cc2N(C(=O)OC(C)C)C[C@@H]1C [Example I-586] ?
## Result 100 to 1000 nM

Values compiled from patent US10703764B2.
